test: viability of PTEN-null HCT116 cells – cell-based, HCT116 clonal line, CellTiter-Glo, pilot screen (AID 824); details: HCT116 PTEN-deleted viability, 60 h, at 10 µM
Records with an inconclusive call do not appear. Active and inactive are the calls of the source.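 How the source made its calls: active means viability at or below 27.92% in each of two runs, the all-compound median minus 4 SD; inconclusive means no clear call, values can overlap the other calls; inactive means the rest.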
Outcome codes: true = active, false = inactive

[[record]]
molecule = "O=C(CN1C(=O)CCC1=O)Nc1nc2c(F)cc(F)cc2s1"
label = "false"

[[record]]
molecule = "C(=N\\c1c(-c2ccccc2)nc2n1CCS2)/c1ccccc1"
label = "false"

[[record]]
molecule = "c1ccc(-c2nc(CSc3nnnn3-c3ccccc3)cs2)cc1"
label = "false"

[[record]]
molecule = "CCSc1nc(O)c(CC)c(=O)n1C(C)CC (centres undefined)"
label = "false"

[[record]]
molecule = "O=C(CSc1oc(-c2ccco2)nc1S(=O)(=O)c1ccc(F)cc1)NCC1CCCO1 (centres undefined)"
label = "false"

[[record]]
molecule = "COc1ccc(C(NC(=O)c2ccco2)c2ccc(OC)c(OC)c2)cc1 (centres undefined)"
label = "false"

[[record]]
molecule = "Cn1c(=O)c2c(nc(CN3CCN(CCO)CC3)n2Cc2ccccc2Cl)n(C)c1=O"
label = "false"

[[record]]
molecule = "CC1CCN(C(=O)CSCC(=O)Nc2nc(-c3cccs3)cs2)CC1"
label = "false"

[[record]]
molecule = "COc1ccc(C2C(C(=O)NCc3cccnc3)c3ccccc3C(=O)N2C)cc1OC (centres undefined)"
label = "false"

[[record]]
molecule = "CC1CCC(NC(=O)Cn2ncc3ccccc32)CC1 (centres undefined)"
label = "false"

[[record]]
molecule = "COc1ccc(CNc2nc3c(c(=O)[nH]c(=O)n3C)n2Cc2ccccc2C)cc1"
label = "false"

[[record]]
molecule = "CCCNC(=O)C1CC(=O)N(c2ccc(OCC(=O)Nc3cc(C)cc(C)c3)cc2)C1 (centres undefined)"
label = "false"

[[record]]
molecule = "COc1ccc(-n2c(Cc3cccn3C)nnc2SCC(=O)Nc2ccc(Cl)cc2)cc1"
label = "false"

[[record]]
molecule = "COc1ccc(C(=O)c2ccc(OC)c(N)c2)cc1N"
label = "true"

[[record]]
molecule = "CCc1nnc(NC(=O)CSc2nnc(Cc3cccn3C)n2CCOC)s1"
label = "false"

[[record]]
molecule = "COCCn1c(=N)c(C(=O)NCCc2ccccc2)cc2c(=O)n3cccc(C)c3nc21"
label = "false"

[[record]]
molecule = "CC(=O)NCCc1ccc(S(=O)(=O)N2CCCC2)cc1"
label = "false"

[[record]]
molecule = "COc1ccc(CNC(=O)CS(=O)Cc2nc(-c3ccc(C)cc3)oc2C)cc1 (centres undefined)"
label = "false"

[[record]]
molecule = "CCn1cc(SCC(=O)NCC2CCCO2)c2ccccc21 (centres undefined)"
label = "false"

[[record]]
molecule = "Cc1ccc2cccc(SCC(=O)N3CCOCC3)c2n1"
label = "false"

[[record]]
molecule = "CSc1cccc(NS(=O)(=O)c2ccccc2)c1"
label = "false"

[[record]]
molecule = "Cc1ccc(C2=[N+]([O-])C3(CCCCC/C3=N\\O)N(O)C2(C)C)o1 (centres undefined)"
label = "false"

[[record]]
molecule = "CCC(C)NC(=O)c1cc(CC(C)C)on1 (centres undefined)"
label = "false"

[[record]]
molecule = "COCCCNC(=O)CSc1ccc(Cl)cc1"
label = "false"

